- Tested on: SH-SY5Y
- Assay method text: Antiproliferative activity against human SH-SY5Y cells assessed as cell growth inhibition measured for 48 hrs by MTT assay
- Assay type: functional, cell-based
pIC50: −log10 of the molar value.
Below, each entry is listed with its recorded pIC50.

| Record smiles | Observed property | Result |
| --- | --- | --- |
| CN1CCN(Cc2cn(-c3cccc(C(=O)NCCCCCCCn4cc(-c5cccnc5)nn4)c3)nn2)CC1 | pIC50 | < 5.00 |

Prompt line: Write down pIC50 measured for item `O=C(NCCCCCCCn1cc(-c2cccnc2)nn1)c1cccc(-n2cc(CN3CCC(O)CC3)nn2)c1`
Response line: < 5.00

---

- Assay method text: AUC in CD-1 mouse at 2 mg/kg, iv
- Assay type: ADME, organism-based
- Experimental conditions: in vivo
Observed property: AUC (µM·h)
# output: bare number, implied unit µM·h

Prompt line: Write down AUC measured for item `CC(C)(O)CS(=O)(=O)Nc1ccc2c(c1)CCN(C(=O)COc1cccnc1)C2`
Response line: 0.195

---

- System name: Epidermal growth factor receptor (Homo sapiens, UniProt P00533, L861Q)
- Sequence (P00533 25-1210 L861Q limits assumed): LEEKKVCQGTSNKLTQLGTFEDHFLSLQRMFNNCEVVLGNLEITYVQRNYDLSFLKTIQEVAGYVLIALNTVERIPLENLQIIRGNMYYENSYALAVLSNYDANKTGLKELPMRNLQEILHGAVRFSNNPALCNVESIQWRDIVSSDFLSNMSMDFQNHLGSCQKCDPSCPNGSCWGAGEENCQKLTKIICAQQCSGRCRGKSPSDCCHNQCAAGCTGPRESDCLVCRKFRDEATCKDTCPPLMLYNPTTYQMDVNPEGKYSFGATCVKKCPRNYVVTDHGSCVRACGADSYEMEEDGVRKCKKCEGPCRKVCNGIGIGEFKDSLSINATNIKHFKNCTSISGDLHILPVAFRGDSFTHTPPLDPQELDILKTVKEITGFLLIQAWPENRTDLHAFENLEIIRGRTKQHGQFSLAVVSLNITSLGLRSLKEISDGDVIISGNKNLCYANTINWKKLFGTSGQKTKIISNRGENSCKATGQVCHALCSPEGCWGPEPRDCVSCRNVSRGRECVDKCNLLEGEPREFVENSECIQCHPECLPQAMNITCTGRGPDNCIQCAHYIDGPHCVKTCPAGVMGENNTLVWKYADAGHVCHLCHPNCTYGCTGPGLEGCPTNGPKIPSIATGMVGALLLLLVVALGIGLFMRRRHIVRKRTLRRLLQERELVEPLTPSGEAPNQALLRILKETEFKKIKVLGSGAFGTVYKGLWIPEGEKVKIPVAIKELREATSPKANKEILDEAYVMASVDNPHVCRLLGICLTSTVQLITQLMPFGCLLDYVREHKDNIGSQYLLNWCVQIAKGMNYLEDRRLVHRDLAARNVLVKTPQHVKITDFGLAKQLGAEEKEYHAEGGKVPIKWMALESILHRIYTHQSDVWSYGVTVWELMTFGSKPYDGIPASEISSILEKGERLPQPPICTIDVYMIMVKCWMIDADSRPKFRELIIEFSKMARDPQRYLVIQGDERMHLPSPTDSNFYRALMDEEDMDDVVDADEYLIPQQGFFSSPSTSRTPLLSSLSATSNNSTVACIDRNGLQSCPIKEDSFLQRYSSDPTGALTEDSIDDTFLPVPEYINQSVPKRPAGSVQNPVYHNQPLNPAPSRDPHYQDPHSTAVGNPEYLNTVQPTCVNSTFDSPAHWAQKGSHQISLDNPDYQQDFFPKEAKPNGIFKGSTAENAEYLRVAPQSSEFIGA
- Assay method text: Inhibition of human EGFR L861Q mutant by discoverX kinome scan assay
Observed property: IC50 (nM)
# output: bare number, implied unit nM

Prompt line: Write down IC50 measured for item `C#Cc1cccc(Nc2ncnc3cc(OC)c(OCCCCCCCN/C(=N\C#N)Nc4ccncc4)cc23)c1`
Response line: 0.49

---

- Assay method text: Half life in mouse plasma at 5 mg/kg, iv by LC-MS/MS analysis
- Format: ADME, organism-based
Observed property: half-life (h)
# output: bare number, implied unit h

Prompt line: Write down half-life measured for item `CCCn1c(=O)c(-c2ccc(C(=O)NCc3cccnc3)cc2)nc2ccc(NC(=O)CCCCCCCCCCC(=O)N[C@H](C(=O)N3C[C@H](O)C[C@H]3C(=O)N[C@@H](C)c3ccc(-c4scnc4C)cc3)C(C)(C)C)cc21`
Response line: 9.89

---

- Assay method text: Half life in Sprague-Dawley rat at 5 mg/kg, po measured for 24 hrs by LC/MS/MS analysis
- Assay type: ADME, organism-based
- Experimental conditions: in vivo
Below, each entry is listed with its recorded half-life.

| Record smiles | half-life |
| --- | --- |
| O=C(NC[C@@H]1CCOC1)c1ccc(NC(=O)N2Cc3ccccc3C2)cc1 | 3 h |

Shifting focus to the compound that follows.
Prompt line: Write down half-life measured for item `CC(C)(O)CC(=O)N1CCC(c2ccc(NC(=O)N3Cc4ccccc4C3)cc2)CC1`
Response line: 4.8 h

---

- Assay method text: Oral bioavailability in mouse at 2 mg/kg
- Assay type: ADME, organism-based
- Experimental conditions: in vivo
Observed property: bioavailability

Prompt line: Write down bioavailability measured for item `Cc1c(CNc2ccc(CCNC(=O)/C=C/c3cccnc3)cc2)oc2c1C(=O)C(=O)c1c-2ccc2c1CCCC2(C)C`
Response line: 5.8%

---

- System name: Nicotinamide phosphoribosyltransferase (Homo sapiens, UniProt P43490)
- Sequence (P43490 whole entry): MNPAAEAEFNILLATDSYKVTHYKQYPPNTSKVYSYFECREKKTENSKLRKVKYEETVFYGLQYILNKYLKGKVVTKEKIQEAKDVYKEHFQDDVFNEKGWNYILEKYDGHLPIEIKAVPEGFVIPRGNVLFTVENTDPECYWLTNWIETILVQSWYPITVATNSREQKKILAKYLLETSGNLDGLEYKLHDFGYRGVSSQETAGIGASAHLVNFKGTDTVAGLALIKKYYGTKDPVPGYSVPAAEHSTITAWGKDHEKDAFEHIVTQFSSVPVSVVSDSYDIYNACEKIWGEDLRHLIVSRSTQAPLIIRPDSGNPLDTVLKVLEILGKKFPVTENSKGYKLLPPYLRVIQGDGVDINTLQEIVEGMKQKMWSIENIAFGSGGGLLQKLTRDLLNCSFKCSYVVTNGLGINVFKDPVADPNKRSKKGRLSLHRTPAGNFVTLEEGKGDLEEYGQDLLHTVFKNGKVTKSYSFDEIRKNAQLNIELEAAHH
- Assay method text: Inhibition of N-terminal 6His-tagged human NAMPT (unknown origin) expressed in Escherichia coli Rosetta (DE) cells incubated for 1 hr by […]
Observed property: IC50 (nM)
# output: bare number, implied unit nM

Prompt line: Write down IC50 measured for item `CC(=O)NCc1ncc2cc(COc3ccc(C(=O)NCc4cccnc4)cc3)n(CCC3CCCCC3)c2n1`
Response line: 4.3

---

- System name: Cytochrome P450 2C9 (Homo sapiens)
- Sequence (P11712 whole entry): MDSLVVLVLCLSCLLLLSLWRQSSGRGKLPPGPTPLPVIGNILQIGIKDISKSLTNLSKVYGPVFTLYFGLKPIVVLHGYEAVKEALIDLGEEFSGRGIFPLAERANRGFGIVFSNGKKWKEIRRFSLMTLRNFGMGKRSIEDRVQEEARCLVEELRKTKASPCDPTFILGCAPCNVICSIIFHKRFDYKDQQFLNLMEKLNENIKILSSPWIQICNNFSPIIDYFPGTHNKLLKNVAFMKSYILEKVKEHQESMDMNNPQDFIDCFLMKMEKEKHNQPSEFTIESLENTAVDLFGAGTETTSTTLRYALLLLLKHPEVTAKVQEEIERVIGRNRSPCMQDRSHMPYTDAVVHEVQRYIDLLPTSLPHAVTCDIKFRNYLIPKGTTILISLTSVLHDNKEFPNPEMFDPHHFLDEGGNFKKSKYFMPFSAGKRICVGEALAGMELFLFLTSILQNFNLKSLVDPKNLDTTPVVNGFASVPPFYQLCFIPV
Observed property: IC50

Prompt line: State IC50 on Cytochrome P450 2C9 (Homo sapiens). Entry: `CC(C)(O)CC(=O)N1CCC(c2ccc(NC(=O)N3Cc4ccccc4C3)cc2)CC1`
Response line: > 20 µM

---

- Assay method text: Oral bioavailability in CD-1 mouse at 2 mg/kg
- Type: ADME, organism-based
- Experimental conditions: in vivo
Observed property: bioavailability (%)
# output: bare number, implied unit %

Prompt line: Write down bioavailability measured for item `CC(C)(O)CS(=O)(=O)Nc1ccc2c(c1)CCN(C(=O)COc1cccnc1)C2`
Response line: 39

---

- Assay method text: Cmax in mouse plasma at 30 mg/kg, ip measured upto 24 hrs by LC-MS/MS analysis
- Type: ADME, organism-based
Observed property: Cmax
Field note: include the unit after the figure.

Prompt line: Write down Cmax measured for item `CCCn1c(=O)c(-c2ccc(C(=O)NCc3cccnc3)cc2)nc2ccc(NC(=O)CCCCCCCCCCC(=O)N[C@H](C(=O)N3C[C@H](O)C[C@H]3C(=O)N[C@@H](C)c3ccc(-c4scnc4C)cc3)C(C)(C)C)cc21`
Response line: 166 nM

---

- System name: Histone deacetylase 1 (Homo sapiens, UniProt Q13547)
- Sequence (Q13547 whole entry): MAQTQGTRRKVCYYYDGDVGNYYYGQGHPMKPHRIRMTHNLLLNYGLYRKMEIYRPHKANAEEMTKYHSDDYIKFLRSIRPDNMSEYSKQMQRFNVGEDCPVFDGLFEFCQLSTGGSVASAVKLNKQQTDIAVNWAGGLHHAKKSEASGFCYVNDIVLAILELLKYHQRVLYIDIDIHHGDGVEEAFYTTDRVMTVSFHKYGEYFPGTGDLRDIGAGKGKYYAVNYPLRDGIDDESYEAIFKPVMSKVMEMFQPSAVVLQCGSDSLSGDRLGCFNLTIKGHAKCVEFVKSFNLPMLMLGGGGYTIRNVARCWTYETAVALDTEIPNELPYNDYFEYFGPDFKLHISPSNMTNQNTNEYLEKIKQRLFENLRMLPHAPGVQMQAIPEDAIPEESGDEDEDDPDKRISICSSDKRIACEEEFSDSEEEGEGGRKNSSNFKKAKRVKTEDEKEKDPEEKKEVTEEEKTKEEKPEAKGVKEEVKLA
- Assay method text: Inhibition of human recombinant HDAC1 using Boc-Lys(Ac)-AMC as substrate preincubated for 30 mins followed by substrate addition measured for 1 hr by fluorescence based analysis
Observed property: IC50 (µM)
# output: bare number, implied unit µM

Prompt line: Write down IC50 measured for item `Nc1ccccc1NC(=O)c1ccc(Cn2cc(-c3ccc(C(=O)NCc4cccnc4)cc3)nn2)cc1`
Response line: 55

---

- Assay method text: Clearance in CD-1 mouse at 2 mg/kg, iv
- Type: ADME, organism-based
- Experimental conditions: in vivo
Observed property: clearance (L/h/kg)
# output: bare number, implied unit L/h/kg

Prompt line: Write down clearance measured for item `CC(C)(O)CS(=O)(=O)Nc1ccc2c(c1)CCN(C(=O)COc1cccnc1)C2`
Response line: 9.52

---

- Assay method text: Clearance in cynomolgus monkey at 5 mg/kg, po
- Format: ADME, organism-based, Macaca fascicularis
- Experimental conditions: in vivo
Observed property: CL/F
Field note: include the unit after the figure.

Prompt line: Write down CL/F measured for item `O=C(NCc1ccc(S(=O)(=O)c2cc(F)cc(F)c2)cc1)c1ccc2nccn2c1`
Response line: 0.548 L/h/kg

---

- Assay method text: Clearance in Beagle dog at 5 mg/kg, po
- Type: ADME, organism-based, Canis lupus familiaris
- Experimental conditions: in vivo
Observed property: CL/F

Prompt line: Write down CL/F measured for item `O=C(NCc1ccc(S(=O)(=O)c2cc(F)cc(F)c2)cc1)c1ccc2nccn2c1`
Response line: 4.62 mL/min/kg

---

- System name: Nicotinamide phosphoribosyltransferase (Homo sapiens)
- Assay method text: Inhibition of NAMPT (unknown origin)
Observed property: pIC50
Schema: pIC50 number; meaning minus log10 of the concentration expressed in molar units.

Example results:
| Record smiles | Observed property | Numeric value |
| --- | --- | --- |
| O=C(NCCCCCCCn1cc(-c2cccnc2)nn1)c1cccc(-n2cc(CN3CCC(O)CC3)nn2)c1 | pIC50 | 7.87 |
| CC(C)(O)CS(=O)(=O)Nc1ccc2c(c1)CCN(C(=O)COc1cccnc1)C2 | pIC50 | 8.49 |
| Cc1ccc(C(=O)N(CCCNC(=O)CCCCCCCCN2CCN(S(=O)(=O)c3ccc(NC(=S)NCc4cccnc4)cc3)CC2)[C@@H](c2nc3cc(Cl)ccc3c(=O)n2Cc2ccccc2)C(C)C)cc1 | pIC50 | 6.31 |

Shifting focus to the molecule that follows.
Prompt line: State pIC50 on Nicotinamide phosphoribosyltransferase (Homo sapiens). Entry: `CN1CCN(Cc2cn(-c3cccc(C(=O)NCCCCCCCn4cc(-c5cccnc5)nn4)c3)nn2)CC1`
Response line: 7.38

---

- System name: Epidermal growth factor receptor (Homo sapiens, UniProt P00533, L858R)
- Sequence (P00533 25-1210 L858R limits assumed): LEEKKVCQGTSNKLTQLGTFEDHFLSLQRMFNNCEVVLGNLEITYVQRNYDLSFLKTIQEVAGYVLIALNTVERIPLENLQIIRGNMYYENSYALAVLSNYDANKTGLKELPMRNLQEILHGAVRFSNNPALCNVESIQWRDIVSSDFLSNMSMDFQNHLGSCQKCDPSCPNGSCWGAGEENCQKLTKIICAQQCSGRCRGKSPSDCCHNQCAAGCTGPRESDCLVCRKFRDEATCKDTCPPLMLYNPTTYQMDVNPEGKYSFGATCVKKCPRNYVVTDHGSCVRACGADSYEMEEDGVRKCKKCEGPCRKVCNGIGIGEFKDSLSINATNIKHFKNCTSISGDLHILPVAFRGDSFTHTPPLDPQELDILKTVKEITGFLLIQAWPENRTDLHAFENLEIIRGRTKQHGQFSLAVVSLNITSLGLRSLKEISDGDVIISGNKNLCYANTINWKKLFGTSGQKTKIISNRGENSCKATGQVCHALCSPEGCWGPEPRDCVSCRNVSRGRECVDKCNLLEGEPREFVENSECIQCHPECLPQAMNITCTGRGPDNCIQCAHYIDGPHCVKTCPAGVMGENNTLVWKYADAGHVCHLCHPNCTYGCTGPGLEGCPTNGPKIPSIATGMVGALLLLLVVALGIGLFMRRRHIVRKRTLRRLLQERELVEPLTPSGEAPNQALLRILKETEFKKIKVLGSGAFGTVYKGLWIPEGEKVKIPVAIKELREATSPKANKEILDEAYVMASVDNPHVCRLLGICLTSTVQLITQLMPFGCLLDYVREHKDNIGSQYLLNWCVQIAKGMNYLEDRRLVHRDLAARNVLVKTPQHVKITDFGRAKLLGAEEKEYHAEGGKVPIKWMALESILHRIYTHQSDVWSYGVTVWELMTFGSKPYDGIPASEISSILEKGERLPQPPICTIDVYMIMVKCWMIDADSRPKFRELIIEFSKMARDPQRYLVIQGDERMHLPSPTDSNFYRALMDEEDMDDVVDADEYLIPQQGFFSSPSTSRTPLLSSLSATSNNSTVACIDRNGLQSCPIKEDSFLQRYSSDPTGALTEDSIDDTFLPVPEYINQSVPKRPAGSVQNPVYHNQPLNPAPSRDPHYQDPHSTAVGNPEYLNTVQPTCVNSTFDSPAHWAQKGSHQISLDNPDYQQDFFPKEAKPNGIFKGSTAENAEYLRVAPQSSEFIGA
- Assay method text: Inhibition of EGFR L858R mutant (unknown origin)
Observed property: pIC50
Schema: pIC50 number; meaning minus log10 of the concentration expressed in molar units.

Prompt line: Write down pIC50 measured for item `C#Cc1cccc(Nc2ncnc3cc(OC)c(OCCCCCCCN/C(=N\C#N)Nc4ccncc4)cc23)c1`
Response line: 9.32

---

- Assay method text: Oral bioavailability in Cynomolgus monkey at 5 mg/kg
- Assay type: ADME, organism-based, Macaca fascicularis
- Experimental conditions: in vivo
Observed property: bioavailability (%)
# output: bare number, implied unit %

Prompt line: Write down bioavailability measured for item `O=C(NCc1ccc(S(=O)(=O)c2cc(F)cc(F)c2)cc1)c1ccc2nccn2c1`
Response line: 29.4

---

- Assay method text: Clearance in Sprague-Dawley rat at 5 mg/kg, po
- Format: ADME, organism-based
- Experimental conditions: in vivo
Observed property: CL/F (mL/min/kg)
# output: bare number, implied unit mL/min/kg

Prompt line: Write down CL/F measured for item `O=C(NCc1ccc(S(=O)(=O)c2cc(F)cc(F)c2)cc1)c1ccc2nccn2c1`
Response line: 19.3

FYI, the data here is from ChEMBL document CHEMBL5518156.
